Literature roundup of Dual specificity protein kinase TTK (Homo sapiens) data, read-out pIC50.
pIC50: −log10 of the molar value.

>  <compound-structure-string>
CCc1ccccc1NC(=O)c1c(C)nsc1Nc1ncnc2sccc12

>  <result-type>
pIC50

>  <result>
< 4.70

$$$$
>  <compound-structure-string>
COC(=O)c1cnc(Nc2snc(C)c2C(=O)Nc2ccc(F)c(F)c2)o1

>  <result-type>
pIC50

>  <result>
< 4.70

$$$$
>  <compound-structure-string>
CCc1ccccc1NC(=O)c1c(C)nsc1Nc1cnc2ccccc2n1

>  <result-type>
pIC50

>  <result>
< 4.70

$$$$
>  <compound-structure-string>
CCCOC(=O)n1c(-c2cnn(C)c2)cc2cnc(Nc3ccc(-c4cnc(C)n4C)cc3Cl)cc21

>  <result-type>
pIC50

>  <result>
8.70

$$$$
>  <compound-structure-string>
CCc1ccccc1NC(=O)c1c(C)nsc1Nc1ncnc2ccsc12

>  <result-type>
pIC50

>  <result>
< 4.70

$$$$

Quote pIC50 with test system Dual specificity protein kinase TTK (Homo sapiens) for CN1CCC(NC(=O)c2ccc(Nc3cc4c(-c5cnn(C)c5)cccc4cn3)c(OC(F)(F)F)c2)CC1
6.53
